These entries and their values trace back to paper PMC10253817.

Tested target: α4β1 integrin (Homo sapiens, UniProt P05556+P13612)
Construct: Jurkat E6.1 cell line, which endogenously expresses α4β1 integrin; host or cells: Jurkat E6.1
Sequence (P13612 34-1032): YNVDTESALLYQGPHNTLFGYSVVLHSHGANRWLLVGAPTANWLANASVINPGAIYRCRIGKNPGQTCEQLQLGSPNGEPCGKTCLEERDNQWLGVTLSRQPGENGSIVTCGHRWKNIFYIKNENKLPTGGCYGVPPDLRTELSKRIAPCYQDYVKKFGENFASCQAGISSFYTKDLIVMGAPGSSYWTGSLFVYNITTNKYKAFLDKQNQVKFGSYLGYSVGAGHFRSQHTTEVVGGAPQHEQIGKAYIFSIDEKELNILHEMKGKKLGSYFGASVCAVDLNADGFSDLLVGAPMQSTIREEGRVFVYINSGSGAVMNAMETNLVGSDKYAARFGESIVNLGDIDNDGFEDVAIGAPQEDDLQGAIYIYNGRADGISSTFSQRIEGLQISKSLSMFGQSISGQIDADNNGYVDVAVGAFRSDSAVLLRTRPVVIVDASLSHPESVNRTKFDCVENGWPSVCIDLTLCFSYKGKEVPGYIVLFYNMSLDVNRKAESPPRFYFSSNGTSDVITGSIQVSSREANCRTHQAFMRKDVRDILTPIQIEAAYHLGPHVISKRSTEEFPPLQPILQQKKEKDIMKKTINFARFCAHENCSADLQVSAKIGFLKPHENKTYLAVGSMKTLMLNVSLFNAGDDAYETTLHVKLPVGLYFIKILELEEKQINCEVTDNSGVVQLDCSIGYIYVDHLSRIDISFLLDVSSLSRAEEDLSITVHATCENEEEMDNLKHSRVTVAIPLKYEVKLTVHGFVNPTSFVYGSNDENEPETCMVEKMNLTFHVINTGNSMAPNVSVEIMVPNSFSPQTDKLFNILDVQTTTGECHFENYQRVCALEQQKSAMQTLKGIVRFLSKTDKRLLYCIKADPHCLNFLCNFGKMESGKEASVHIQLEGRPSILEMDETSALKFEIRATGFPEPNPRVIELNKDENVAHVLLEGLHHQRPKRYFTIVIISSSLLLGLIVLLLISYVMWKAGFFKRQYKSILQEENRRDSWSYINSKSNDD
Sequence (P05556 21-798): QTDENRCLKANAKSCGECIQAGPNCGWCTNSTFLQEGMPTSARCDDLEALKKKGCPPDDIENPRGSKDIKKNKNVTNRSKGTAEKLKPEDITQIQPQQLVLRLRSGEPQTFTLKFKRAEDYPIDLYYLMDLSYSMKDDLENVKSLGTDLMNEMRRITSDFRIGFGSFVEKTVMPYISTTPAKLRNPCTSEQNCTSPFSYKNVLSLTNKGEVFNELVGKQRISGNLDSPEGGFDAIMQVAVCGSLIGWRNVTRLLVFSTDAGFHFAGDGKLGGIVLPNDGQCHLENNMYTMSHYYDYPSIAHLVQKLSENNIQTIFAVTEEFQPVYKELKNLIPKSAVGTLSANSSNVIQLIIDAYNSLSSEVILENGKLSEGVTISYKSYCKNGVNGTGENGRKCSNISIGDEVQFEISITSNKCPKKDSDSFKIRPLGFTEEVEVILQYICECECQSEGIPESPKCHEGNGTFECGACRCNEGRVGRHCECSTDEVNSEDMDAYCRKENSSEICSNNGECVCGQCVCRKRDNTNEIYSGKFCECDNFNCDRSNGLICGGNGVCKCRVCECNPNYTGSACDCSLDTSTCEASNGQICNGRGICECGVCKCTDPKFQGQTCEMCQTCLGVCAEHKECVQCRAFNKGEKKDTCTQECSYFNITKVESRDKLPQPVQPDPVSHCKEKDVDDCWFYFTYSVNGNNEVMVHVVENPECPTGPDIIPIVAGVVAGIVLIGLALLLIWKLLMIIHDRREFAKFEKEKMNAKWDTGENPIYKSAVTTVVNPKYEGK
Test summary: α4β1 integrin-mediated Jurkat E6.1 cell adhesion to FN
Assay type: cell-based
Condition notes: Jurkat E6.1 cell adhesion to FN (10 μg/mL); antag. = reduced cell adhesion; mean ± SD
Here the recorded IC50 is given for each entry.
Property measured: IC50

Compound: Cc1ccccc1NC(=O)Nc1ccc(CNC(=O)C[C@@H](C)NC(=O)CC(=O)O)cc1
Result: 0.416 µM

Compound: CCCNC(=O)[C@H](CC(=O)NCc1ccc(NC(=O)Nc2ccccc2C)cc1)NC(=O)CC(=O)O
Result: > 5 µM

Compound: Cc1ccccc1NC(=O)Nc1ccc(CC(=O)N2CC[C@H](C(=O)NCC(=O)O)C2)cc1 [DS-70, MPUPA-β^2Pro-Gly, reference compound]
Result: 0.0043 µM

Compound: CCCNC(=O)[C@@H](CC(=O)NCc1ccc(NC(=O)Nc2ccccc2C)cc1)NC(=O)CC(=O)O
Result: > 5 µM

Compound: CC(=O)N[C@H](CNC(=O)CC(=O)O)C(=O)NCc1ccc(NC(=O)Nc2ccccc2C)cc1
Result: > 5 µM

Compound: Cc1ccccc1NC(=O)Nc1ccc(CNC(=O)[C@H]2CCN(C(=O)CC(=O)O)C2)cc1 [DS-23, reference compound]
Result: 0.051 µM

Compound: Cc1ccccc1NC(=O)Nc1ccc(CNC(=O)[C@H](C)CNC(=O)CC(=O)O)cc1
Result: > 5 µM

Compound: Cc1ccccc1NC(=O)Nc1ccc(CNC(=O)[C@@H](C)CNC(=O)CC(=O)O)cc1
Result: > 5 µM

Compound: Cc1ccccc1NC(=O)Nc1ccc(CNC(=O)C[C@H](C)NC(=O)CC(=O)O)cc1
Result: > 5 µM

Compound: CC(=O)N[C@@H](CNC(=O)CC(=O)O)C(=O)NCc1ccc(NC(=O)Nc2ccccc2C)cc1
Result: > 5 µM
